target: hTG2 (Homo sapiens, UniProt P21980); experiment: biochemical; conditions: values determined using a double-reciprocal analysis; read-out: kinact/KI (converted)
Sequence (P21980 whole entry): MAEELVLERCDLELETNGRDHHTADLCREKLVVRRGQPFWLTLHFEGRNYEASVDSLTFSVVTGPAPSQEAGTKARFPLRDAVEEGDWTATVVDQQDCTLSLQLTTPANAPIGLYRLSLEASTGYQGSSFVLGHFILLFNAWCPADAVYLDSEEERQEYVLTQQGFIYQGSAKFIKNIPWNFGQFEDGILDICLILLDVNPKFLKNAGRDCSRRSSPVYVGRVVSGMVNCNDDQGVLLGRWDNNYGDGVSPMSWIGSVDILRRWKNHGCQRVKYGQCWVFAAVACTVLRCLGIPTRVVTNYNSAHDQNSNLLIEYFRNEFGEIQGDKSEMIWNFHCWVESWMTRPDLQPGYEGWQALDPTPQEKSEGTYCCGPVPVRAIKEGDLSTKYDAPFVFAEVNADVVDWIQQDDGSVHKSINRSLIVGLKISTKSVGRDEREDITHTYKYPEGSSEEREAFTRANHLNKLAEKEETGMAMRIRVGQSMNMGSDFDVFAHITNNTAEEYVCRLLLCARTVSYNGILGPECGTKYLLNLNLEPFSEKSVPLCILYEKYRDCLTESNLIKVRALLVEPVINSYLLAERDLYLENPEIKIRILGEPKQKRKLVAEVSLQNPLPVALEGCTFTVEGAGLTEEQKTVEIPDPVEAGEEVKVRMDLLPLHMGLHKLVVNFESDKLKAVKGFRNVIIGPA
Would you mind labelling by kinact/KI? At or over 200 M⁻¹ s⁻¹ is yes, under is no.

# compound, class_name
data = [
    ("C=CC(=O)NCCCC[C@H](NC(=O)c1cccc(F)c1)C(=O)N1CCN(C(=O)c2cccc3ccccc23)CC1 [Inhibitor 63]", "yes"),
    ("C=CC(=O)NCCCC[C@H](NS(=O)(=O)c1ccccc1)C(=O)N1CCN(C(=O)c2cccc3ccccc23)CC1 [Inhibitor 89]", "no"),
    ("C=CC(=O)NCCCC[C@H](NC(=O)c1cccnc1)C(=O)N1CCN(C(=O)c2cccc3ccccc23)CC1 [Inhibitor 19]", "yes"),
    ("C=CC(=O)NCCCC[C@H](NC(=O)c1ccncc1)C(=O)N1CCN(C(=O)c2cccc3ccccc23)CC1 [Inhibitor 20]", "yes"),
    ("C=CC(=O)NCCCC[C@H](NC(=O)c1ccc(F)cc1)C(=O)N1CCN(C(=O)c2cccc3ccccc23)CC1 [Inhibitor 64]", "yes"),
    ("C=CC(=O)NCCCC[C@H](NC(=O)c1ccccn1)C(=O)N1CCN(C(=O)c2cccc3ccccc23)CC1 [Inhibitor 18]", "no"),
]

----------
target: UniProt P21980; experiment: biochemical; settings: fit to saturation kinetics model; 25° C., pH 6.95, 100 μM AL5; read-out: kinact/KI (converted)

# smiles_text, kinact/KI
measured = [
    ("C=CC(=O)NCCCC[C@H](NC(=O)C1CC1)C(=O)N1CCN(C(=O)c2cccc3ccccc23)CC1", "1610 M⁻¹ s⁻¹"),
    ("C=CC(=O)NCCCC[C@H](NC(=O)C(C)(C)C)C(=O)N1CCN(C(=O)c2cccc3ccccc23)CC1", "937 M⁻¹ s⁻¹"),
    ("C=CC(=O)NCCCC[C@H](NC(=O)Cc1ccccc1C)C(=O)N1CCN(C(=O)c2cccc3ccccc23)CC1", "5870 M⁻¹ s⁻¹"),
    ("C=CC(=O)NCCCC[C@H](NC(=O)Cc1cccc(Cl)c1Cl)C(=O)N1CCN(C(=O)c2cccc3ccccc23)CC1", "2830 M⁻¹ s⁻¹"),
    ("C=CC(=O)NCCCC[C@H](NC(=O)CC)C(=O)N1CCN(C(=O)c2cccc3ccccc23)CC1", "1720 M⁻¹ s⁻¹"),
    ("C=CC(=O)NCCCC[C@H](NC(=O)Cc1ccccc1Cl)C(=O)N1CCN(C(=O)c2cccc3ccccc23)CC1", "4920 M⁻¹ s⁻¹"),
    ("C=CC(=O)NCCCC[C@H](NC(=O)Cc1cccc(Cl)c1)C(=O)N1CCN(C(=O)c2cccc3ccccc23)CC1", "4830 M⁻¹ s⁻¹"),
    ("C=CC(=O)NCCCC[C@H](NC(=O)CCCc1ccccc1)C(=O)N1CCN(C(=O)c2cccc3ccccc23)CC1", "660 M⁻¹ s⁻¹"),
]

----------
biological target: hTG2 (Homo sapiens); experiment: biochemical; conditions: fit to saturation kinetics model; 25° C., pH 6.95, 100 μM AL5; read-out: kinact/KI (converted)

# compound, study_target, endpoint_unit, kinact/KI
records = [
    ("C=CC(=O)NCCCC[C@H](NC(=O)Cc1ccccc1OC)C(=O)N1CCN(C(=O)c2cccc3ccccc23)CC1", "hTG2 (Homo sapiens)", "M⁻¹ s⁻¹", 4980),
    ("C=CC(=O)NCCCC[C@H](NS(C)(=O)=O)C(=O)N1CCN(C(=O)c2cccc3ccccc23)CC1", "hTG2 (Homo sapiens)", "M⁻¹ s⁻¹", 377),
    ("C=CC(=O)NCCCC[C@H](NC(=O)Cc1ccc(F)cc1F)C(=O)N1CCN(C(=O)c2cccc3ccccc23)CC1", "hTG2 (Homo sapiens)", "M⁻¹ s⁻¹", 3730),
    ("C=CC(=O)NCCCC[C@H](NC(=O)C1C2CC3CC(C2)CC1C3)C(=O)N1CCN(C(=O)c2cccc3ccccc23)CC1 (stereo partly shown)", "hTG2 (Homo sapiens)", "M⁻¹ s⁻¹", 248),
]
